Test: acute toxicity (LD50 Mouse), Litchfield and Wilcoxon
Conditions: in vivo, po
Structures can show the parent of a compound that is named as a salt.
EXPERIMENTAL_ENDPOINT: LD50 (mg/kg)

[[record]]
molecule = "COc1ccccc1OCCNCc1ccccn1 [Compound D, HCl]"
experimental_endpoint = "LD50"
observed = 750

[[record]]
molecule = "Clc1ccccc1OCCCCNCCc1ccncc1 [Compound K, dioxalate monohydrate]"
experimental_endpoint = "LD50"
observed = 235

[[record]]
molecule = "Cc1cccnc1CNCCOc1ccccc1C#N [Compound J, hydrate]"
experimental_endpoint = "LD50"
observed = 660

[[record]]
molecule = "COc1ccccc1OCCNCc1ccncc1 [Compound E, HCl]"
experimental_endpoint = "LD50"
observed = 730

[[record]]
molecule = "COc1ccccc1OCCNCCc1ccncc1 [Compound A, HCl]"
experimental_endpoint = "LD50"
observed = 290

[[record]]
molecule = "N#Cc1ccccc1OCCNCCc1ccncc1 [Compound L, dioxalate hydrate]"
experimental_endpoint = "LD50"
observed = 245

[[record]]
molecule = "COc1ccccc1OCCNCc1cccnc1 [Compound C, HCl]"
experimental_endpoint = "LD50"
observed = 390

